target: Fibroblast growth factor 2 (Homo sapiens); experiment: basic fibroblast growth factor binding to printed compounds – biochemical, small-molecule microarray, 635/667 nm fluorescence, primary screen (AID 1133); conditions: FGF2, fluorescence 635/667, higher = more signal
Known composite z-score of a selection of molecules
Please give the numeric answer without any surrounding text.

Known composite z-score results, listed for orientation:
| SMILES_CODE | composite z-score |
| --- | --- |
| C=C(C(=O)CC[C@H](OC(=O)c1cccnc1)c1ccc(OCCO)cc1)C(C)C | 0.859 |
| [N-]=[N+]=NCc1ccccc1C[C@]1(C(=O)NCCN2CCOCC2)COC(c2ccc(OCCCO)cc2)=N1 | 0.152 |
| COCCOC(=O)N1C(=O)[C@@]2(c3cc(C#CC4(O)CCCCCC4)ccc31)[C@H](C(=O)NC[C@H](O)c1ccccc1)[C@H]1C(=O)O[C@H](c3ccccc3)[C@H](c3ccccc3)N1[C@@H]2c1ccc(OCCO)cc1 | 0.94 |
| O=[N+]([O-])c1ccc(C[n+]2ccc(-c3ccc(CO)cc3)cc2)o1 | 0.59 |

Data request: Look up composite z-score for this molecule: "COC(=O)C(CC#Cc1ccc2c(c1)[C@]1(C(=O)N2)[C@H](c2ccccc2OCCO)N2[C@H](c3ccccc3)[C@H](c3ccccc3)OC(=O)[C@H]2[C@@H]1C(=O)Nc1nc2ccccc2s1)C(=O)OC"
Data returned: 0.622

###

tested on: Plasmodium falciparum Sir2 (PF13_0152, Sir2A); test: Plasmodium falciparum Sir2A binding compounds – biochemical, small-molecule microarray, 635 nm fluorescence, primary screen (AID 1098); settings: fluorescence 635 nm, higher = more signal;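 note: score merges spot fluorescence intensity with its signal-to-noise ratio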
PROPERTY_NAME: composite z-score
Please give the numeric answer without any surrounding text.

Data request: Look up composite z-score for this molecule: "CCOC(=O)C1=CC[C@@H](c2ccc(N(CC)CC)cc2)N(S(=O)(=O)c2ccc(C)cc2)[C@H]1c1ccc([N+](=O)[O-])cc1"
Data returned: 0.468

Data request: Another molecule: "COCCOC(=O)N1C(=O)[C@@]2(c3cc(C#CCCO)ccc31)[C@H](C(=O)N1CCc3cc(OC)c(OC)cc3C1)[C@H]1C(=O)O[C@H](c3ccccc3)[C@H](c3ccccc3)N1[C@@H]2c1ccc(OCCO)cc1"
Data returned: 1.19

Data request: Another molecule: "C=CCNC(=O)[C@H]1[C@@H]2C(=O)O[C@@H](c3ccccc3)[C@@H](c3ccccc3)N2[C@@H](c2ccc(OCCO)cc2)[C@]12C(=O)N(C(=O)OCCOC)c1ccc(C#CC3=CCCCC3)cc12"
Data returned: 1.39

Data request: Another molecule: "COCCCNC(=O)[C@]1(Cc2ccccc2CN=[N+]=[N-])N=C(c2ccc(OCCCO)cc2)O[C@@H]1c1ccccc1CN=[N+]=[N-]"
Data returned: 1.59

###

assay: JC-1 mitochondrial potential readout, lung cancer cells – cell-based, A549, JC-1 fluorescence, basal, 24 h, 100 nL, profiling panel (AID 1138); conditions: higher = more signal;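 note: A549 lung adenocarcinoma cells under basal conditions with no added stimulus; test concentration not given here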
Known z-score of a selection of compounds
Please give the numeric answer without any surrounding text.

Data request: Look up z-score for this compound: "CCCN1C(=O)[C@@]2(Cc3ccccc3)N=C(c3ccc(OCCCO)cc3)O[C@H]2c2ccccc21"
Data returned: 0.686

Data request: Another compound: "CCCCCCC#C[Si](O[C@H](c1ccccc1)c1cn(Cc2cccc(Cl)c2)nn1)(C(C)C)C(C)C"
Data returned: 1.4

Data request: Another compound: "COc1ccc(C#Cc2ccc3c(c2)[C@]2(C(=O)N3)[C@H](C(N)=O)[C@H]3C(=O)O[C@H](c4ccccc4)[C@H](c4ccccc4)N3[C@@H]2c2ccc(O)cc2)cc1"
Data returned: -1.4

Data request: Another compound: "C=C(CCCC)/C(=C/C[C@H](OC(=O)c1ccncc1)c1ccc(CO)o1)c1cc(C(=O)OC)ccc1OC"
Data returned: -0.648

Data request: Another compound: "C=CC[C@@]1(C(=O)NCCN2CCOCC2)N=C(c2ccc(OCCCO)cc2)O[C@@H]1c1ccccc1"
Data returned: -0.185

Data request: Another compound: "O=C1N(Cc2ccccc2)c2ccccc2[C@H]2OC(c3ccc(OCCCO)cc3)=N[C@@]12CCS(=O)(=O)c1ccccc1"
Data returned: -1.26

Data request: Another compound: O=C1C2C=CC(C(O)c3cccc4ccccc34)N(Nc3ccccc3)C2C(=O)N1c1ccccc1 (centres undefined)
Data returned: -0.39

Data request: Another compound: "C[N+](C)(C)CCCCCCNC(=O)[C@@H]1C[C@@H]2C(=O)NCC(=O)N2[C@@H]1c1ccc(O)cc1"
Data returned: -0.779

Data request: Another compound: "Cc1ccc(S[C@]2(C(=O)NCCN3CCOCC3)CC(=O)N(C3Cc4ccccc4C3)[C@@H]2c2ccc(CO)cc2)cc1"
Data returned: 0.161
